This collection of values is drawn from the Immune Epitope Database (IEDB).

Provide the recorded pKd for the entries that follow.
- tested_system: HLA-A*01:01
- experiment: IEDB peptide-MHC binding, purified MHC/direct/fluorescence; filed as Kd, often an IC50 or EC50 that approximates it; bounds were set here for any values at or beyond the usual limits of such assays
- assay_context: source organism: Mycobacterium tuberculosis
pKd: −log10 of the molar value.

- sequence_chain: "ALFDRPAFK"
  tested_system: "HLA-A*01:01"
  pKd: "≤ 4.70"

Here is another sequence to look at.
In: pKd for QINELHHSK ?
Out: ≤ 4.70

* * *

- tested_system: HLA-A*02:01
- experiment: IEDB peptide-MHC binding, purified MHC/competitive/fluorescence; filed as Kd, often an IC50 or EC50 that approximates it; bounds were set here for any values at or beyond the usual limits of such assays
- assay_context: source organism: Vaccinia virus WR
measurement_kind: Kd (nM)
One number for each entry, in nM.

In: Which Kd is listed for KLIIDREVV ?
Out: 1790

* * *

- tested_system: HLA-B*44:03
- experiment: IEDB peptide-MHC binding, purified MHC/competitive/radioactivity; filed as Kd, often an IC50 or EC50 that approximates it; bounds were set here for any values at or beyond the usual limits of such assays
- assay_context: source organism: Dengue virus 1 Brazil/97-11/1997
measurement_kind: Kd (nM)
Answers are plain numbers, in nM.

- sequence_chain: "SFIEVKTCIW"
  tested_system: "HLA-B*44:03"
  Kd [nM]: 1260

Dear colleague, could you send me Kd for each of the items below? Thanks.
1. NEMVLLTMKE
2. GEVDSFSLGI
3. KEAVEDERFW
4. SEMGANFRA

Out:
5670
19.4
305
48.9

* * *

- tested_system: HLA-A*30:01
- experiment: IEDB peptide-MHC binding, purified MHC/competitive/fluorescence; filed as Kd, often an IC50 or EC50 that approximates it; bounds were set here for any values at or beyond the usual limits of such assays
- assay_context: source organism: Pseudomonas aeruginosa UCBPP-PA14
pKd: −log10 of the molar value.
measurement_kind: pKd

In: What pKd value was documented for this sequence, FLDDASNSA ?
Out: ≤ 4.70

* * *

- tested_system: HLA-A*02:12
- experiment: IEDB peptide-MHC binding, purified MHC/direct/fluorescence; filed as Kd, often an IC50 or EC50 that approximates it; bounds were set here for any values at or beyond the usual limits of such assays
- assay_context: source organism: Vibrio vulnificus CMCP6
pKd: −log10 of the molar value.
measurement_kind: pKd

In: Suppose we examine the sequence SVMSTFFWE ; what pKd value has been reported?
Out: ≤ 4.70

* * *

- tested_system: HLA-B*40:01
- experiment: IEDB peptide-MHC binding, purified MHC/direct/fluorescence; filed as Kd, often an IC50 or EC50 that approximates it; bounds were set here for any values at or beyond the usual limits of such assays
- assay_context: source organism: Salmonella enterica
measurement_kind: Kd

In: Endpoint output: Kd of WTDLYTSMS . Value?
Out: ≥ 20 µM

* * *

- tested_system: HLA-B*48:01
- experiment: IEDB peptide-MHC binding, purified MHC/direct/fluorescence; filed as Kd, often an IC50 or EC50 that approximates it; bounds were set here for any values at or beyond the usual limits of such assays
- assay_context: source organism: Ebola virus - Mayinga, Zaire, 1976
measurement_kind: Kd

In: Test system HLA-B*48:01; read-out Kd; what value for SRTPSGKRL ?
Out: ≥ 20 µM
